Listed here are compounds together with their documented IC50.
Molecular target: NRAS WT (Homo sapiens, UniProt P01111+P62937)
Sequence (P01111 whole entry): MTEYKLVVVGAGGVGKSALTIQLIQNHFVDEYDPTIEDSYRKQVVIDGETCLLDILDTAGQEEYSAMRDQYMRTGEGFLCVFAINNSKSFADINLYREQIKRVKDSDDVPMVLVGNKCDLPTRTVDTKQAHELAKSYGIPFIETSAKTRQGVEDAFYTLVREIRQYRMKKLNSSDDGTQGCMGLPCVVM
Sequence (P62937 whole entry): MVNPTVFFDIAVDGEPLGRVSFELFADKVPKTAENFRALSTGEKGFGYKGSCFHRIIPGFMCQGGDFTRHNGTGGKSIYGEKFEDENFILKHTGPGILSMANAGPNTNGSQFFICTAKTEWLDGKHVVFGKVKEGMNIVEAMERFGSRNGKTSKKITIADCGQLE
Experiment: Disruption of BRAF RBD interaction with Ras (FRET / MOA assay, with Cyclophilin A)
Type: biochemical
Conditions: NRAS WT; read-out: NRAS WT FRET data IC50

# compound, IC50
records = [
    ("CCn1c(-c2cc(N3CCN(C)CC3)cnc2[C@H](C)OC)c2c3cc(ccc31)-c1csc(n1)C[C@H](NC(=O)[C@H](C(C)C)N(C)C(=O)N(C)C)C(=O)N1CCC[C@H](N1)C(=O)OCC(C)(C)C2 (atropisomer, axis not shown) [Example A277]", "10 to 100 nM"),
    ("CCn1c(-c2cccnc2[C@H](C)OC)c2c3cc(ccc31)-c1csc(n1)C[C@H](NC(=O)[C@H](C(C)C)N(C)C(=O)N1CCC(N(C)C)CC1)C(=O)N1CCC[C@H](N1)C(=O)OCC(C)(C)C2 (atropisomer, axis not shown) [Example A571]", "10 to 100 nM"),
    ("CCn1c(-c2cccnc2[C@H](C)OC)c2c3cc(ccc31)-c1cc(O)cc(c1)C[C@H](NC(=O)[C@H](C(C)C)N(C)C(=O)[C@@H]1OCC[C@@H]1c1cccnc1)C(=O)N1CCC[C@H](N1)C(=O)OCC(C)(C)C2 (atropisomer, axis not shown) [Example A546]", "10 to 100 nM"),
    ("CCn1c(-c2cccnc2[C@H](C)OC)c2c3cc(ccc31)-c1csc(n1)C[C@H](NC(=O)[C@H](C(C)C)N(C)C(=O)N1CC[C@@]3(CCN(C)C3=O)C1)C(=O)N1CCC[C@H](N1)C(=O)OCC(C)(C)C2 (single isomer, unassigned) [Example A495]", "100 to 1000 nM"),
    ("CCn1c(-c2cccnc2[C@H](C)OC)c2c3cc(ccc31)-c1csc(n1)C[C@H](NC(=O)[C@H](C(C)C)N(C)C(=O)N1CCOCC1)C(=O)N1CCC[C@H](N1)C(=O)OCC(C)(C)C2 (atropisomer, axis not shown) [Example A372]", "10 to 100 nM"),
    ("CCn1c(-c2cccnc2[C@H](C)OC)c2c3cc(ccc31)-c1csc(n1)C[C@H](NC(=O)[C@H](C(C)C)N(C)C(=O)N1CC[C@@H](N(C)C)C1)C(=O)N1CCC[C@H](N1)C(=O)OCC(C)(C)C2 (atropisomer, axis not shown) [Example A566]", "100 to 1000 nM"),
    ("CCn1c(-c2cc(N3CCN(C)CC3)cnc2[C@H](C)OC)c2c3cc(ccc31)-c1csc(n1)C[C@H](NC(=O)[C@H](C(C)C)N(C)C(=O)[C@@H]1OCC[C@@H]1c1ccccc1)C(=O)N1CCC[C@H](N1)C(=O)OCC(C)(C)C2 (atropisomer, axis not shown) [Example A583]", "100 to 1000 nM"),
]

Note: attention shifts to another entry.
CCn1c(-c2cccnc2[C@H](C)OC)c2c3cc(ccc31)-c1csc(n1)C[C@H](NC(=O)[C@H](C(C)C)N(C)C(=O)N1CCCC13CCOCC3)C(=O)N1CCC[C@H](N1)C(=O)OCC(C)(C)C2 (atropisomer, axis not shown) [Example A520] yielded IC50 of 100 to 1000 nM
